Data provenance: patent US20030068675

assayed target: ZFP SBS#427 (synthetic)
Sequence (chain, as listed by the source): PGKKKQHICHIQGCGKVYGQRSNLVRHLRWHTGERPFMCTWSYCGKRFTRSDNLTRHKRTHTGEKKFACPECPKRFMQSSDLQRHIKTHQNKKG
experiment notes: EMSA
conditions used: tags: MBP fusion
assay readout: pKd
// pKd here means minus log10 of the molar concentration (mol/L)

Sample GCTGAGGAA (dsDNA) DNA 1: GCTGAGGAA DNA 2: TTCCTCAGC ; pKd observed: 9.00
